Some molecules, each annotated with its measured Results Screen Median Screen (% inhibition).
- System: viral RNA polymerase
- Assay info: Potential inhibitors: Results Screen
- Format: biochemical
- Condition details: test concentration not given
Hi! Could you send only the number? It should be in % inhibition, unit omitted.

Q: Could you share which Results Screen Median Screen (% inhibition) value was measured for CC[C@H](C)/C=C(C)/C=C/C(=O)Cc1cc(O)c(C)c(O)c1C=O ?
Result: 71

Q: Could you share which Results Screen Median Screen (% inhibition) value was measured for COC(=O)[C@H](Cc1ccccc1)NC(=O)c1ccccc1 ?
Result: 81

Q: Could you share which Results Screen Median Screen (% inhibition) value was measured for COc1cc(OC)cc([C@@H](C)C(=O)c2ccc(O)cc2O)c1 ?
Result: 81.1
